targetSystem: human PILRA R78 on cells (human, UniProt Q9UKJ1 20-303)
Sequence (Q9UKJ1 20-303 limits assumed): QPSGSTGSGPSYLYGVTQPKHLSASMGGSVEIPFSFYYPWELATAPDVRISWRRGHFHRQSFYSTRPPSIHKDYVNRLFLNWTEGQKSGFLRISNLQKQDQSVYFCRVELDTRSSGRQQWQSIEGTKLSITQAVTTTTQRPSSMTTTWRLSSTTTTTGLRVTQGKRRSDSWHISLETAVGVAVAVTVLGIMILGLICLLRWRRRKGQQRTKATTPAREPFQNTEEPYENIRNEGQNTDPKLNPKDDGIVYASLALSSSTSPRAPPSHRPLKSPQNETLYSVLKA
methodSummary: cell-based or functional assay
measuredQuantity: pSTAT3 Y705 induction, EC50 (nM)
Give me the value, and tack the unit on after it.

Okay, here is my list. What is pSTAT3 Y705 induction, EC50 (nM) for each of these?
1. Anti-PILRA antibody clone 35 (antibody, V domains shown, Humanized; also called Ab.35) VH: EVQLVQSGAEVKKPGASVKVSCKASGYTFTEYYMYWVRQAPGQGLELIGRIDPEDGGTDYVEKFKNRATLTADTSTSTAYLELSSLRSEDTAVYFCASTIRGTVFVYWGQGTLVTVSS VL: DIQMTQSPSSLSASVGDRVTITCRPSEDIYNGLAWYQQKPGKSPKLLIYNANSLHTGVPSRFSGSGSGTDYTLTISSLQPEDFATYFCQQYYDYPLTFGQGTKVEIK
2. Anti-PILRA antibody clone 12 (antibody, V domains shown, Humanized; also called Ab.12) VH: EVQLVQSGAEVKKPGASVKVSCKASGYTFTEYYMYWVRQAPGQGLELIGRIDPEDGGTDYIEKFKNRVTITADTSTSTAYLELSSLRSEDTAVYYCATTIRGTVFAFWGQGTLVTVSS VL: DIQMTQSPSSLSASVGDRVTITCRASEDIFNGLAWYQQKPGKSPKLLIYNAKTLHTGVPSRFSGSGSGSDYTLTISSLQPEDFATYFCQQYYDYPLTFGQGTKVEIK
3. Anti-PILRA antibody clone 23 (antibody, V domains shown, Humanized; also called Ab.23) VH: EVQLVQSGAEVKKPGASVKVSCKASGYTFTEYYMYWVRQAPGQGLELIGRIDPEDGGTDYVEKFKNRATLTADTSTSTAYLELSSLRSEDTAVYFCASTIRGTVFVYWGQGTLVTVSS VL: DIQMTQSPSSLSASVGDRVTITCRPSEDIYNGLAWYQQKPGKAPKLLIYNANSLHTGVPSRFSGSGSGTDYTLTISSLQPEDFATYYCQQYYDYPLTFGQGTKVEIK

(A)
["6.19 nM", "4.53 nM", "7.55 nM"]
